Experiment: Selectivity index, ratio of IC50 for BuChE in equine serum to IC50 for electric eel AChE
Threshold check on Ratio IC50: strictly below 1 is Yes; on or above 1 is No.

Q: Could you please tell me whether Ratio IC50 recorded for CCN(CC)CCCCCCOc1ccc(CC2NCCc3cc(OC)c(OC)cc32)cc1 (stereo not given) is less than 1?
Ans: No

Q: Check COc1cc2c(cc1OC)C(Cc1ccc(OCCCCCCN3CCCC3)cc1)NCC2 (stereo not given) too.
Ans: No

Q: Check COc1cc2c(cc1OC)C(Cc1ccc(OCCCCCCN3CCOCC3)cc1)NCC2 (stereo not given) too.
Ans: Yes

Q: Check COc1cc2c(cc1OC)C(Cc1ccc(OCCCCCCN3CCN(c4ccccc4)CC3)cc1)NCC2 (stereo not given) too.
Ans: Yes

Q: Check COc1cc2c(cc1OC)C(Cc1ccc(OCCCCCCN3CCCCC3)cc1)NCC2 (stereo not given) too.
Ans: No

Q: Check COc1cc2c(cc1OC)C(Cc1ccc(OCCCCCCN3CCC(c4ccccc4)CC3)cc1)NCC2 (stereo not given) too.
Ans: No

Q: Check COc1cc2c(cc1OC)C(Cc1ccc(OCCCCCCN3CCC(O)CC3)cc1)NCC2 (stereo not given) too.
Ans: No

Q: Check COc1cc2c(cc1OC)C(Cc1ccc(OCCCCCCN3CCCC3C)cc1)NCC2 (stereo not given) too.
Ans: No

Q: Check CCCN(CCC)CCCCCCOc1ccc(CC2NCCc3cc(OC)c(OC)cc32)cc1 (stereo not given) too.
Ans: No

---

Molecular target: Amyloid-beta precursor protein (Homo sapiens) (UniProt P05067)
Sequence (P05067 whole entry): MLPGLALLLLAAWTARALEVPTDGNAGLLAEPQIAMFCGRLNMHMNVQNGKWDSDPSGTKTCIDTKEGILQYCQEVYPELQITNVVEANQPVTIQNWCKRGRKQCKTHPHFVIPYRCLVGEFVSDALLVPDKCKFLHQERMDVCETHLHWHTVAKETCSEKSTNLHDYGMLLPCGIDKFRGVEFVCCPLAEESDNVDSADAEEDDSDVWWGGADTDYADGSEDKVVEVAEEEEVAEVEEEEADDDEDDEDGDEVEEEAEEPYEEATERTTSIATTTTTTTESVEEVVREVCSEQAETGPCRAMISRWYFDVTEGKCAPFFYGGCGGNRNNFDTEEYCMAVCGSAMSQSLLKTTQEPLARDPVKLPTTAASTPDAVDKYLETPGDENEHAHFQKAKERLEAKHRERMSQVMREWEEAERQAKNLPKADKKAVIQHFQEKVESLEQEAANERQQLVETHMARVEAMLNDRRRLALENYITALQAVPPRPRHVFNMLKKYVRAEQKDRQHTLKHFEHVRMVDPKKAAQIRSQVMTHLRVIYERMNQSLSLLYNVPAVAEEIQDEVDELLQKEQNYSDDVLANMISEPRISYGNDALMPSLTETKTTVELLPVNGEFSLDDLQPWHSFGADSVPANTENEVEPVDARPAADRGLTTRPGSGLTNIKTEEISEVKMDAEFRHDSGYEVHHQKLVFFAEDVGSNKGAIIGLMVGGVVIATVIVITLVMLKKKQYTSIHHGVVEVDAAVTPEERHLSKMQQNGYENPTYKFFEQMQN
Assay: Inhibition of amyloid beta (1 to 42) (unknown origin) self-aggregation at 20 uM after 46 to 48 hrs by thioflavin T based fluorometric assay
Recorded metric: inhibition (%)
Give the value, in units of %, as a plain number.

Q: Entry COc1cc2c(cc1OC)C(Cc1ccc(OCCCCCCN3CCC(c4ccccc4)CC3)cc1)NCC2 (stereo not given) : reported inhibition = ?
Ans: 61.2

Q: Check CCN(CC)CCCOc1ccc(CC2NCCc3cc(OC)c(OC)cc32)cc1 (stereo not given) too.
Ans: 41.1

Q: Check COc1cc2c(cc1OC)C(Cc1ccc(OCCCCCCN3CCN(Cc4ccccc4)CC3)cc1)NCC2 (stereo not given) too.
Ans: 61.4

Q: Check CCN(CC)CCCCCCCOc1ccc(CC2NCCc3cc(OC)c(OC)cc32)cc1 (stereo not given) too.
Ans: 43.9

Q: Check COc1cc2c(cc1OC)C(Cc1ccc(OCCCCCCN3CCCC3)cc1)NCC2 (stereo not given) too.
Ans: 69

Q: Check CCCN(CCC)CCCCCCOc1ccc(CC2NCCc3cc(OC)c(OC)cc32)cc1 (stereo not given) too.
Ans: 51.2

Q: Check CCN(CC)CCCCCOc1ccc(CC2NCCc3cc(OC)c(OC)cc32)cc1 (stereo not given) too.
Ans: 34.3

Q: Check COc1cc2c(cc1OC)C(Cc1ccc(OCCCCCCN3CCCCC3)cc1)NCC2 (stereo not given) too.
Ans: 76.4

Q: Check COc1cc2c(cc1OC)C(Cc1ccc(O)cc1)NCC2 (stereo not given) too.
Ans: 36

Q: Check COc1cc2c(cc1OC)C(Cc1ccc(OCCCCCCN3CCC(O)CC3)cc1)NCC2 (stereo not given) too.
Ans: 62.1
